Item-by-item account of OD
Assay: Antioxidant activity assessed as assessed as ferric ion reducing activity by measuring absorbance at 700 nm at 100 ug/ml after 20 mins by spectrophotometric method
Format: functional
Please reply with the value in numeric form only.

>>> reportedvalue("N#CC1=C(N)OC2=C(CNc3c2cccc3[N+](=O)[O-])C1c1ccc(F)cc1 (configuration not stated)")
0.12

Q) Fill in the blank: the reported OD of CCOc1ccc(C2C3CNc4c(cccc4[N+](=O)[O-])C3=NN2c2ccccc2)c(OCC)c1 (configuration not stated) is ____.
A) 0.098

Q) Return reported OD; argument: O=[N+]([O-])c1cccc2c1NCC1C2=NN(c2ccccc2)C1c1ccc(Cl)cc1 (configuration not stated)
A) 0.101

Q) Would you mind telling me what OD value was observed for COc1ccc(C2C3CNc4c(cccc4[N+](=O)[O-])C3=NN2c2ccccc2)cc1 (configuration not stated) ?
A) 0.192

Q) Requested read-out: OD. Entry: Cc1ccc(C2C(C#N)=C(N)OC3=C2CNc2c3cccc2[N+](=O)[O-])cc1 (configuration not stated)
A) 0.163

Q) Could you tell me which OD is on file for O=[N+]([O-])c1cccc2c1NCC1C2=NN(c2ccccc2)C1c1ccc(F)cc1 (configuration not stated) ?
A) 0.112

Q) Would you mind telling me what OD value was observed for COc1ccc(C2C(C#N)=C(N)OC3=C2CNc2c3cccc2[N+](=O)[O-])cc1OC (configuration not stated) ?
A) 0.157
